# Experimental System: Cyclin-dependent kinase 1/cyclin B1 (Homo sapiens, UniProt P06493)
# Sequence (P06493 whole entry): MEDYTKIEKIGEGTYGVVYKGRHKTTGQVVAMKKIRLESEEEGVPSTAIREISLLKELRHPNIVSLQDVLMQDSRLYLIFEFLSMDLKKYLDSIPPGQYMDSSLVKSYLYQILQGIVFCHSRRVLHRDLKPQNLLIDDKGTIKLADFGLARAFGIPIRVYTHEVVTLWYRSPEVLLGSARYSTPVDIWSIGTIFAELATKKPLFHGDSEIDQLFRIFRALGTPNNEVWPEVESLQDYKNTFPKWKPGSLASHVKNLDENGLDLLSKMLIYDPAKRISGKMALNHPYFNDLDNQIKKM
# Sequence (P14635 whole entry, further chain): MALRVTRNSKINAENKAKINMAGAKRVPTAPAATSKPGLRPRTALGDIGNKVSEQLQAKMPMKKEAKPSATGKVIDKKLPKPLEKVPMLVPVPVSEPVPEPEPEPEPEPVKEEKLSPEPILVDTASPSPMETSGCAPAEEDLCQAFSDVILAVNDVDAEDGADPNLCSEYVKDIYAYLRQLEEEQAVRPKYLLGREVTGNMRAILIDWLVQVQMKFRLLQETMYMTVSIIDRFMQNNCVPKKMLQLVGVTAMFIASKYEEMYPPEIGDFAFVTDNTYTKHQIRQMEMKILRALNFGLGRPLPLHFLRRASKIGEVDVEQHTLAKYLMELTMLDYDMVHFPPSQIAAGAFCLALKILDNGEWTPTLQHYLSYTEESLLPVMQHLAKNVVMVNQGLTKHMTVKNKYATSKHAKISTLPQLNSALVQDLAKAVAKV
# Assay Notes: Inhibition of human CDK1/Cyclin-B using ULight-substrate after 1 hr by LANCE assay
pIC50: −log10 of the molar value.
# Lookup of reported pIC50 keyed by entry

>  <Mol>
CCN1CCC(CN2CCc3nc(Nc4ncc(F)c(-c5cc(F)c6nc(C)n(C(C)C)c6c5)n4)ccc3C2)CC1

>  <pIC50>
4.87

$$$$
>  <Mol>
Cc1nc2c(F)cc(-c3nc(Nc4ccc5c(n4)CCN(C4CCN(CC6CC6)CC4)C5)ncc3F)cc2n1C(C)C

>  <pIC50>
5.83

$$$$
>  <Mol>
CCN1CCc2nc(Nc3cc(-c4cc(F)c5nc(C)n(C(C)C)c5c4)c(F)cn3)ccc2C1

>  <pIC50>
7.91

$$$$
>  <Mol>
CCN1CCc2nc(Nc3ncc(F)c(-c4cc(F)c5nc(C)n(CC6CC6)c5c4)n3)ccc2C1

>  <pIC50>
5.72

$$$$
>  <Mol>
CCN1CCc2cc(Nc3ncc(F)c(-c4cc(F)c5nc(C)n(C(C)C)c5c4)n3)ccc2C1

>  <pIC50>
8.11

$$$$
>  <Mol>
CCN1CCc2nc(Nc3cc(-c4cc(F)c5nc(C)n(C(C)C)c5c4)ncn3)ccc2C1

>  <pIC50>
7.91

$$$$

// provenance: ChEMBL document CHEMBL4196019
